assay: Stability of the compound in simulated gastric fluid assessed as retention time by micellar liquid chromatography; type: physicochemical; conditions: simulated gi fluid
quantityMeasured: Retention_time (min)
Note: unit min is implicit; provide only the numeric part.

Would you please look over these solved cases?
entrySmiles	Retention_time, min
CCCC(=O)n1ncc2c(O)ncnc21	7.7
Oc1ncnc2[nH]ncc12	2.4
CC(=O)n1ncc2c(O)ncnc21	3

Okay, next one:
Consider the molecule shown here: CCC(=O)n1ncc2c(O)ncnc21 What is its recorded Retention_time?
4

* * *

test: Dissociation constant, pKa of the compound at 25 degC; type: physicochemical
quantityMeasured: pKa
The answer should be a number; do not append a unit.

Consider the compound shown here: Oc1ncnc2[nH]ncc12 [ALLOPURINOL] What is its recorded pKa?
9.7

# credit: ChEMBL document CHEMBL2434933
